Experiment: Concentration of the compound in monkey plasma by LC-MS/MS
Type: in vivo
Details: male, rhesus monkey, Rhesus monkeys, oral 10.0 mg/kg, 24 h
attribute.measured: concentration at 24 h (nM)
Output spec: scalar in nM, unitless text.

Incoming: Give the measured concentration at 24 h for "CS(=O)(=O)n1cc2c(n1)CN([C@@H]1C[C@H](N)[C@@H](c3cc(F)ccc3F)O[C@@H]1C(F)(F)F)C2"
Outgoing: 2930

----------
Assay: Concentration of the compound in monkey plasma by LC-MS/MS
Type: in vivo
Details: male, rhesus monkey, Rhesus monkeys, oral 10.0 mg/kg, 4 h
attribute.measured: concentration at 4 h (nM)
Output spec: scalar in nM, unitless text.

Incoming: Give the measured concentration at 4 h for CS(=O)(=O)n1cc2c(n1)CN([C@@H]1C[C@H](N)[C@@H](c3cc(F)ccc3F)O[C@@H]1C(F)(F)F)C2 [Compound 3]
Outgoing: 2560

----------
Assay: Concentration of the compound in monkey plasma by LC-MS/MS
Type: in vivo
Details: male, rhesus monkey, Rhesus monkeys, oral 10.0 mg/kg, 152 h
attribute.measured: concentration at 152 h (nM)
Output spec: scalar in nM, unitless text.

Incoming: Give the measured concentration at 152 h for "CS(=O)(=O)n1cc2c(n1)CN([C@@H]1C[C@H](N)[C@@H](c3cc(F)ccc3F)O[C@@H]1C(F)(F)F)C2"
Outgoing: 160

----------
Experiment: Evaluation of pharmacokinetics in rats
Format: in vivo
Settings: rat, whole blood, po; male SD rats, 5 mg/kg intragastric; read-out: Blood drug level Cmax
Reported Cmax values follow for various molecules
Output spec: scalar in ng/mL, unitless text.

Incoming: Give the measured Cmax for "CS(=O)(=O)n1cc2c(n1)CN([C@@H]1C[C@H](N)[C@@H](c3cc(F)ccc3F)O[C@@H]1C(F)(F)F)C2"
Outgoing: 11600

Incoming: Give the measured Cmax for "CS(=O)(=O)n1cc2c(n1)CN([C@H]1CO[C@H](c3cc(F)ccc3F)[C@@H](N)C1)C2"
Outgoing: 9290

----------
Experiment: Concentration of the compound in monkey plasma by LC-MS/MS
Type: in vivo
Conditions: male, rhesus monkey, Rhesus monkeys, oral 10.0 mg/kg, 72 h
attribute.measured: concentration at 72 h (nM)
Output spec: scalar in nM, unitless text.

Incoming: Give the measured concentration at 72 h for CS(=O)(=O)n1cc2c(n1)CN([C@@H]1C[C@H](N)[C@@H](c3cc(F)ccc3F)O[C@@H]1C(F)(F)F)C2 [Compound 3]
Outgoing: 1120

----------
Assay: Concentration of the compound in monkey plasma by LC-MS/MS
Format: in vivo
Settings: male, rhesus monkey, Rhesus monkeys, oral 10.0 mg/kg, 56 h
attribute.measured: concentration at 56 h (nM)
Output spec: scalar in nM, unitless text.

Incoming: Give the measured concentration at 56 h for "CS(=O)(=O)n1cc2c(n1)CN([C@@H]1C[C@H](N)[C@@H](c3cc(F)ccc3F)O[C@@H]1C(F)(F)F)C2"
Outgoing: 1280

----------
Experiment: Concentration of the compound in monkey plasma by LC-MS/MS
Assay type: in vivo
Conditions: male, rhesus monkey, Rhesus monkeys, oral 10.0 mg/kg, 144 h
attribute.measured: concentration at 144 h (nM)
Output spec: scalar in nM, unitless text.

Incoming: Give the measured concentration at 144 h for "CS(=O)(=O)n1cc2c(n1)CN([C@@H]1C[C@H](N)[C@@H](c3cc(F)ccc3F)O[C@@H]1C(F)(F)F)C2"
Outgoing: 210
